- System: Trypanosoma cruzi Tulahuen cells expressing beta-galactosidase
- TEST PROTOCOL: T. cruzi intracellular assay (beta-galactosidase, L6 host cells)
- TEST SETTINGS: Trypanosoma cruzi, TULAHUEN, read-out: IC50 TC-I, Table 3A; weighted means of two or more independent trials
PROPERTY LABEL: IC50 (µM)
Field: numeric (µM). Do not append units.

Per the record, `O=C1/C(=C/c2ccc([N+](=O)[O-])cc2)Oc2ccccc21` has IC50 of 20

Per the record, `O=C1/C(=C/c2ccccc2Cl)Oc2ccccc21` has IC50 of 12.7

Per the record, `O=C1/C(=C/c2ccc(Br)cc2)Oc2ccccc21` has IC50 of 11.4

Per the record, `CCCCc1ccc(/C=C2\Oc3ccccc3C2=O)cc1` has IC50 of 7.99

Per the record, `O=C1/C(=C/c2cccc(F)c2)Oc2ccccc21` has IC50 of 6.67

Per the record, `Cc1cccc(/C=C2\Oc3ccccc3C2=O)c1` has IC50 of 37.9

Per the record, `COc1ccc(/C=C2\Oc3ccccc3C2=O)cc1` has IC50 of 10.8

Per the record, `Cc1ccc(/C=C2\Oc3ccccc3C2=O)cc1` has IC50 of 8.63

Per the record, `O=C1/C(=C/c2ccccc2F)Oc2ccccc21` has IC50 of 22

Per the record, `O=C1/C(=C/c2ccc(C(F)(F)F)cc2)Oc2ccccc21` has IC50 of 9.38

Per the record, `COc1ccc(/C=C2\Oc3ccccc3C2=O)cc1OC` has IC50 of 21.9

Per the record, `O=C1/C(=C/c2ccc(Cl)cc2)Oc2ccccc21` has IC50 of 5.53
